Cited source for all entries: patent US8367662B2

# target_desc: human ALK5 (ALK5 T204D kinase domain) (Homo sapiens, UniProt P36897, T204D)
# Construct: The kinase domain of human ALK5 (amino acids 200-503)
# assay_procedure: ALK5 kinase assay: [33P] phosphate incorporation into casein
# cond: casein substrate, 1 μM unlabelled ATP
Consider the following compounds and their measured pIC50 readings.
In simple prose, pIC50 is minus the logarithm base ten of a concentration in moles per litre.

Recorded results for 5 compounds are shown here.
>>> measured_result("CS(=O)(=O)Nc1cccc(-c2ccc3ncc(-c4ccnc(-c5ccoc5)c4)n3c2)c1")
7.01
>>> measured_result("CNC(=O)c1ccc(-c2ccc3ncc(-c4ccnc(-c5ccoc5)c4)n3c2)cc1")
7.24
>>> measured_result("CNC(=O)c1cccc(-c2ccn3c(-c4ccnc(-n5ccc(C)n5)c4)cnc3c2)c1")
7.11
>>> measured_result("c1cncc(-c2ccn3c(-c4cccc(-n5cccn5)c4)cnc3c2)c1")
8.40
>>> measured_result("CNC(=O)c1cccc(-c2ccn3c(-c4ccnc(-c5cccc(F)c5)c4)cnc3c2)c1")
7.26

Look up pIC50 with human ALK5 (ALK5 T204D kinase domain) (Homo sapiens, UniProt P36897, T204D) for this compound: Fc1ccccc1-c1cc(-c2cnc3cc(-c4cccnc4)ccn23)ccn1 7.33

Observed pIC50 on human ALK5 (ALK5 T204D kinase domain) (Homo sapiens, UniProt P36897, T204D) for O=Cc1cccc(-c2ccn3c(-c4ccnc(N5CCCC5)c4)cnc3c2)c1 , please. 7.28

Identify the measured pIC50 of O=Cc1cccc(-c2ccn3c(-c4cccc(-n5cccn5)c4)cnc3c2)c1 for human ALK5 (ALK5 T204D kinase domain) (Homo sapiens, UniProt P36897, T204D). 7.07

----------
# target_desc: human ALK5 (ALK5 T204D kinase domain) (Homo sapiens, UniProt P36897, T204D)
# Construct: The kinase domain of human ALK5 (amino acids 200-503)
# Sequence (P36897 200-503 T204D): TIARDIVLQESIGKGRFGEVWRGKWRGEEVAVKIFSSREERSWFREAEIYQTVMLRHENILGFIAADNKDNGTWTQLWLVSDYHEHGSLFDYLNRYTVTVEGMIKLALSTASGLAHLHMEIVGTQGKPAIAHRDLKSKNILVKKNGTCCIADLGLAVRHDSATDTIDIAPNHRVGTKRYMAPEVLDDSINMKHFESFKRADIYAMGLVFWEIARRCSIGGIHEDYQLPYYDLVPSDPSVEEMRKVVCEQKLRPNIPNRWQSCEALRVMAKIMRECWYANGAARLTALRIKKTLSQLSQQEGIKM
# assay_procedure: ALK5 kinase assay: [33P] phosphate incorporation into casein
# cond: casein substrate, 1 μM unlabelled ATP
Label satisfied when IC50 is strictly below 100 nM; at or above that, label not satisfied.

>>> assigned_class("CCOc1cc(-c2cnc3ccc(N[C@H]4CC[C@H](O)CC4)cn23)ccn1 [Example 2.7]")
"not satisfied"

Decide: IC50 of COc1cc(-c2cnc3ccc(N[C@H]4CC[C@H](O)CC4)cn23)ccn1 [Example 2.2] strictly below 100 nM? not satisfied

Please state whether IC50 is below 100 nM for c1ccc(-c2cc(-c3cnc4cc(-c5ccc(N6CCOCC6)nc5)ccn34)ccn2)cc1 [Example 1.5] satisfied

Record c1cc(-c2cnc3ccc(-c4ccoc4)cn23)cc(-c2ccoc2)n1 [Example 2.12] : is its IC50 strictly below 100 nM? not satisfied

Is IC50 of Fc1cccc(-c2cc(-c3cnc4cc(-c5cccnc5)ccn34)ccn2)c1 [Example 1.17] strictly below 100 nM? satisfied
